I'd appreciate it if you could supply optical density values for the items below.
target: T1, biotinylated goat anti-human kappa light chain; test: ELISA, positive control; also: test concentration or dose not given here
T1 construct: Positive control of the ELISA
Answers are plain numbers, in OD.

Please look at the items below and tell me optical density for each one, in order.
1. 369_F04 (antibody, V domains shown, VH and VL only) VH: EVQLLESGGGLVQPGGSLRLSCAASGFTFSSYGMNWVRQAPGKGLEWVSGINYNGGYTSYADSVKGRFTISRDNSKNTLYLQMNSLRAEDTAVYYCARSATWHDTHLDYWGQGTLVTVSS VL: DIQMTQSPSSLSASVGDRVTITCRASQSIISYVNWYQQKPGKAPKLLIYAATSRHSGVPSRFSGSGSGTDFTLTISSLQPEDFATYYCQQSYDNPLTFGGGTKVEIK
2. 373_A07 (antibody, V domains shown, VH and VL only) VH: EVQLLESGGGLVQPGGSLRLSCAASGFTFSSYSMNWVRQAPGKGLEWVSNINYNGGYTGYADSVKGRFTISRDNSKNTLYLQMNSLRAEDTAVYYCARSATWHDTHLDYWGQGTLVTVSS VL: DIQMTQSPSSLSASVGDRVTITCRASQSILTYVNWYQQKPGKAPKLLIYAATSRASGVPSRFSGSGSGTDFTLTISSLQPEDFATYYCQQSDNLPLTFGGGTKVEIK
3. 368_G08 (antibody, V domains shown, VH and VL only) VH: EVQLLESGGGLVQPGGSLRLSCAASGFTFDDYGMNWVRQAPGKGLEWVSSINYNSGYKSYADSVKGRFTISRDNSKNTLYLQMNSLRAEDTAVYYCARSATWHDTHLDYWGQGTLVTVSS VL: DIQMTQSPSSLSASVGDRVTITCRASQSIVSYVNWYQQKPGKAPKLLIYAATSRHSGVPSRFSGSGSGTDFTLTISSLQPEDFATYYCQQSYNNPLTFGGGTKVEIK
4. 374_G01 (antibody, V domains shown, VH and VL only) VH: EVQLLESGGGLVQPGGSLRLSCAASGFTFDSYSMNWVRQAPGKGLEWVSNINYNSGYTSYADSVKGRFTISRDNSKNTLYLQMNSLRAEDTAVYYCARSATWHDTHLDYWGQGTLVTVSS VL: DIQMTQSPSSLSASVGDRVTITCRASQSILTYVNWYQQKPGKAPKLLIYATTSRHSGVPSRFSGSGSGTDFTLTISSLQPEDFATYYCQQSYNLPLTFGGGTKVEIK

3.46
3.11
3.29
2.92

Note down optical density recorded for 370_D07 (antibody, V domains shown, VH and VL only) VH: EVQLLESGGGLVQPGGSLRLSCAASGFTFSSYGMNWVRQAPGKGLEWVSNINYNSGYTGYADSVKGRFTISRDNSKNTLYLQMNSLRAEDTAVYYCARSATWHDTHLDYWGQGTLVTVSS VL: DIQMTQSPSSLSASVGDRVTITCRASQSILSYVNWYQQKPGKAPKLVIYAATSLASGVPSRFSGSGSGTDFTLTISSLQPEDFATYYCQQSYESPLTFGGGTKVEIK
3.38

Hey, just so you know, these numbers are from patent US20210380703A1.
